Tested on: Aspergillus parasiticus
assayOverview: Antimicrobial activity against Aspergillus parasiticus NCIM 904 after 72 hrs by serial dilution method
Assay type: functional
conditionDescription: NCIM 904, 72 h
measurementType: MIC (µg/mL)

O=C1CCCC2=C1C(c1ccc(O)cc1)c1ccc3ccccc3c1N2 (stereo not given) = 15.6
O=C1CCCC2=C1C(c1ccccc1Cl)c1ccc3ccccc3c1N2 (stereo not given) = 62.5
CC1(C)CC(=O)C2=C(C1)Nc1c(ccc3ccccc13)C2c1ccccc1O (stereo not given) = 3.9
CC1(C)CC(=O)C2=C(C1)Nc1c(ccc3ccccc13)C2c1ccccc1 (stereo not given) = 62.5
CC1(C)CC(=O)C2=C(C1)Nc1c(ccc3ccccc13)C2c1cccc([N+](=O)[O-])c1 (stereo not given) = 3.9
